- study target: HLA-B*07:02
- measurement protocol: IEDB peptide-MHC binding, purified MHC/competitive/radioactivity; filed as Kd, often an IC50 or EC50 that approximates it; bounds were set here for any values at or beyond the usual limits of such assays
- condition summary: source organism: Dengue virus 3 Singapore/8120/1995
readout kind: pKd
Give bare numbers, as −log10 of the molar value.

**Query** Retrieve pKd measured for TPKGTVMDII and print it.
**Result** 6.22

====

- study target: HLA-B*53:01
- measurement protocol: IEDB peptide-MHC binding, purified MHC/competitive/fluorescence; bounds were set here for any values at or beyond the usual limits of such assays
- condition summary: source organism: Homo sapiens
readout kind: IC50

**Query** Respond only with IC50 recorded for SYMMDDLELI
**Result** ≥ 20 µM

====

- study target: HLA-C*14:02
- measurement protocol: IEDB peptide-MHC binding, purified MHC/direct/fluorescence; filed as Kd, often an IC50 or EC50 that approximates it; bounds were set here for any values at or beyond the usual limits of such assays
- condition summary: source organism: Escherichia coli O139:H28 str. E24377A
readout kind: pKd
Numbers only, as −log10 of the molar value.

**Query** Please report the measured pKd for ACPDNLLRL tested on HLA-C*14:02.
**Result** 5.96

====

- study target: HLA-A*02:11
- measurement protocol: IEDB peptide-MHC binding, purified MHC/competitive/fluorescence; filed as Kd, often an IC50 or EC50 that approximates it; bounds were set here for any values at or beyond the usual limits of such assays
- condition summary: source organism: Vibrio cholerae V52
pKd: −log10 of the molar value.
readout kind: pKd

**Query** For the sequence IGYRLGMGK , give its measured pKd value.
**Result** ≤ 4.70

====

- study target: HLA-A*68:23
- measurement protocol: IEDB peptide-MHC binding, purified MHC/competitive/fluorescence; filed as Kd, often an IC50 or EC50 that approximates it; bounds were set here for any values at or beyond the usual limits of such assays
- condition summary: source organism: Yersinia pestis Nepal516
readout kind: Kd (nM)
Give bare numbers, in nM.

**Query** Tell me its Kd given YSLMSRYQF as the entry.
**Result** 29.5

====

- study target: HLA-A*68:02
- measurement protocol: IEDB peptide-MHC binding, purified MHC/competitive/radioactivity; filed as Kd, often an IC50 or EC50 that approximates it; bounds were set here for any values at or beyond the usual limits of such assays
- condition summary: source organism: Mammarenavirus juninense
pKd: −log10 of the molar value.
readout kind: pKd

**Query** Please report the measured pKd for GLSQFTQTV
**Result** ≤ 4.59

====

- study target: HLA-A*26:01
- measurement protocol: IEDB peptide-MHC binding, purified MHC/competitive/fluorescence; filed as Kd, often an IC50 or EC50 that approximates it; bounds were set here for any values at or beyond the usual limits of such assays
- condition summary: source organism: Escherichia coli
readout kind: Kd (nM)
Give bare numbers, in nM.

**Query** Complete the entry with Kd for YIVGYYSAL
**Result** 232

====

- study target: HLA-B*58:01
- measurement protocol: IEDB peptide-MHC binding, purified MHC/direct/fluorescence; filed as Kd, often an IC50 or EC50 that approximates it; bounds were set here for any values at or beyond the usual limits of such assays
- condition summary: source organism: Salmonella enterica subsp. enterica serovar Typhi
readout kind: Kd

**Query** Given VPQTDAGVT , report its Kd on HLA-B*58:01.
**Result** ≥ 10 µM
